tested on: ZIKV
Readout Name: ZIKV active Yes/No

Some entries whose results are on file:
Molecule	Readout Name	Reported Measurement
Cc1[nH]c2ccccc2c1C1=C(NCCc2ccc(F)cc2)C(=O)N(C)C1=O	ZIKV active Yes/No	Yes
CNC(=O)c1cc(Oc2ccc(NC(=O)Nc3cc(C(C)(C)C)nn3-c3ccc4ncccc4c3)c(F)c2)ccn1	ZIKV active Yes/No	No
OC1C=C2C3CN(Cc4cc5c(cc43)OCO5)C2CC1O (stereo not shown)	ZIKV active Yes/No	Yes
CC(C)(C#N)c1ccc(N2C(=O)OCc3cnc4ccc(-c5cnc6ccccc6c5)cc4c32)cc1	ZIKV active Yes/No	Yes

Supply measured ZIKV active Yes/No of CCC[S+](=O)([O-])Nc1ccc(F)c(C(=O)c2c[nH]c3ncc(-c4ccc(Cl)cc4)cc23)c1F in your reply.
Yes

Supply measured ZIKV active Yes/No of CCN(CC)CCCC(C)Nc1ccnc2cc(Cl)ccc12 (stereo not shown) [NCGC00015256, chloroquine, reference compound] in your reply.
No

Supply measured ZIKV active Yes/No of CC1(C)CC2C(O)C3=C(CC(C)(O)C2C1)C(=O)OC3 (stereo not shown) in your reply.
No

Supply measured ZIKV active Yes/No of C=C1CCC2[C@](C)(CCC[C@]2(C)C(=O)O)[C@H]1CC/C(C)=C/C(=O)OC (stereo partly shown) in your reply.
No

Supply measured ZIKV active Yes/No of C=C(C)[C@@]12O[C@@H]1[C@@]1(C)C(=CC2=O)CC[C@@H](OC(C)=O)[C@@H]1C in your reply.
Yes

Supply measured ZIKV active Yes/No of CC1=C[C@H]2O[C@@H]3[C@H](O)C[C@](C)([C@@]2(CO)[C@H](O)C1=O)[C@]31CO1 in your reply.
Yes

Supply measured ZIKV active Yes/No of COC(=O)[C@]12CCCC(C)(C)C1CCc1cc(C(C)C)c(O)c(O)c12 (stereo partly shown) in your reply.
No

Supply measured ZIKV active Yes/No of C=C(F)c1sc(CNCCCNc2cc(=O)c3ccccc3[nH]2)c(C)c1Br in your reply.
No

Supply measured ZIKV active Yes/No of Cc1ccc2c(c1)Cc1c(C(=O)NN3CCCCC3)nn(-c3ccc(Cl)cc3Cl)c1-2 in your reply.
Yes

Supply measured ZIKV active Yes/No of COc1ccc2c(c1)C=C1Cn3c-2c(C2CCCCC2)c2ccc(cc23)C(=O)N[S+](=O)([O-])N(C)CCOCCN(C)C1=O in your reply.
No

Supply measured ZIKV active Yes/No of CS[C@H]1SC[C@@H]2C(=O)N(C)[C@H](C(C)C)C(=O)OC[C@H](NC(=O)c3cnc4ccccc4n3)C(=O)N[C@H](C)C(=O)N(C)[C@H]1C(=O)N(C)[C@H](C(C)C)C(=O)OC[C@H](NC(=O)c1cnc3ccccc3n1)C(=O)N[C@H](C)C(=O)N2C in your reply.
No

Supply measured ZIKV active Yes/No of CCOC(=O)C1=C(C)NC2=C(C(=O)CC(C)(C)C2)C1c1ccc(-c2ccccc2)cc1 (stereo not shown) in your reply.
No

* * *

tested on: wild-type ZIKV (Ugandan MR766 strain) in Vero cells; assay: ZIKV cytopathic effect (CPE) inhibition qHTS assay, CellTiter-Glo readout; format: cell-based, Zika virus
Kindly return Met if reported Efficacy is no lower than -80; return Not met if it is lower.

Solved cases (5 shown):
Molecule	System	Assigned Label
C=C(C)C1Cc2c(ccc3c2OCC(c2ccc(O)cc2O)C3)O1 (stereo not shown)	wild-type ZIKV (Ugandan MR766 strain) in Vero cells	Met
C[C@@H]1O[C@@H](O[C@H]2[C@H](OC(=O)[C@]34CCC(C)(C)C[C@H]3C3=CCC5[C@@]6(C)C[C@H](O)[C@H](O[C@@H]7O[C@H](C(=O)O)[C@@H](O)[C@H](O)[C@H]7O)[C@@](C)(CO)C6[C@H](O)C[C@@]5(C)[C@]3(C)CC4)OC[C@H](O)[C@@H]2O)[C@H](O)[C@H](O)[C@H]1O[C@@H]1OC[C@@H](O)[C@H](O[C@@H]2O[C@@H](C)[CH][C@@H](O)[C@H]2O)[C@H]1O (stereo partly shown)	wild-type ZIKV (Ugandan MR766 strain) in Vero cells	Met
C=C(C)C1=C[C@@]2(C)C(=CC1=O)CC[C@@H](O)[C@@H]2C	wild-type ZIKV (Ugandan MR766 strain) in Vero cells	Met
C=C(C)C(=O)O[C@H]1CC2=CC(C/C(C)=C/[C@H]3OC(=O)C(=C)[C@H]13)OC2=O (stereo partly shown)	wild-type ZIKV (Ugandan MR766 strain) in Vero cells	Not met
C=C(CO)[C@@]12O[C@@H]1[C@@]1(C)C(=CC2=O)CC[C@@H](O)[C@@H]1C	wild-type ZIKV (Ugandan MR766 strain) in Vero cells	Met

Please check the record CC1(C)CC=C(C#Cc2ccccc2)c2cc(/C=C/c3ccc(C(=O)O)cc3)ccc21 and state if its Efficacy is at or above -80.
Not met

Please check the record C=C(C(=O)O[C@H]1C/C(C)=C/CC/C(CO)=C/[C@H]2OC(=O)C(=C)[C@H]12)C(O)CO (stereo partly shown) and state if its Efficacy is at or above -80.
Not met

* * *

tested on: wild-type ZIKV (Ugandan MR766 strain) in Vero cells; assay: ZIKV cytopathic effect (CPE) inhibition qHTS assay, CellTiter-Glo readout; format: cell-based, Zika virus
Recorded Efficacy, one value per entry.
Form rule: numeric answer, no unit written next to it.

Some entries whose results are on file:
Compound	Readout Name	Reported Measurement
CCOC(=O)C1=C(C)NC2=C(C(=O)CC(C)(C)C2)C1c1ccc(-c2ccccc2)cc1 (centres unmarked) [NCGC00347947-06]	Efficacy	-55.111
CCC(=C(c1ccc(OCCN2CCCC2)cc1)c1ccc(OCCN2CCCC2)cc1)c1ccccc1 [NCGC00408918-01]	Efficacy	-39.621
C=C(C)C1CCC(C)C12CC(O)C1(C)OC1C2OC(=O)C(N)CCC(=O)O (centres unmarked) [NCGC00381118-01]	Efficacy	-55.082
C=C(F)c1sc(CNCCCNc2cc(=O)c3ccccc3[nH]2)c(C)c1Br [NCGC00386616-01]	Efficacy	-30.953

Query compound follows.
Supply measured Efficacy of C[C@@H]1O[C@@H](O[C@H]2[C@H](O[C@H]3CC[C@@]4(C)C(CC[C@]5(C)C4C=C[C@]46OC[C@@]7(CCC(C)(C)C[C@H]74)[C@@H](O[C@@H]4O[C@@H](C)[C@H](O)[C@@H](O)[C@H]4O)C[C@]65C)[C@]3(C)CO)O[C@H](CO)[C@@H](O)[C@@H]2O[C@@H]2O[C@H](CO)[C@@H](O)[C@H](O)[C@H]2O)[C@H](O)[C@H](O)[C@H]1O (some centres unmarked) [NCGC00384707-01] in your reply.
-27.107

* * *

tested on: ZIKV
Recorded SI value ZIKV (CC50/EC50), one value per entry.
Form rule: numeric answer, no unit written next to it.

In [3]: df
Out[3]:
                                   molecule               readout_name  reported_measurement
0  Cc1[nH]c2ccccc2c1C1=C(NCCc2ccc(F)cc2)C(=O)N(C)C1=O  SI value ZIKV (CC50/EC50)                    23
1  CC(C)(C#N)c1ccc(N2C(=O)OCc3cnc4ccc(-c5cnc6ccccc6c5)cc4c32)cc1  SI value ZIKV (CC50/EC50)                     3
2  C=C(C)[C@@]12O[C@@H]1[C@@]1(C)C(=CC2=O)CC[C@@H](OC(C)=O)[C@@H]1C  SI value ZIKV (CC50/EC50)                    22

// output SI value ZIKV (CC50/EC50); input Cc1ccc2c(c1)Cc1c(C(=O)NN3CCCCC3)nn(-c3ccc(Cl)cc3Cl)c1-2 ; system ZIKV
31

// output SI value ZIKV (CC50/EC50); input OC1C=C2C3CN(Cc4cc5c(cc43)OCO5)C2CC1O (stereo not drawn) ; system ZIKV
4.7

// output SI value ZIKV (CC50/EC50); input CCC[S+](=O)([O-])Nc1ccc(F)c(C(=O)c2c[nH]c3ncc(-c4ccc(Cl)cc4)cc23)c1F ; system ZIKV
14

* * *

test system: wild-type ZIKV (Ugandan MR766 strain) in Vero cells; experiment: ZIKV cytopathic effect (CPE) inhibition qHTS assay, CellTiter-Glo readout; type: cell-based, Zika virus
Recorded Efficacy, one value per entry.

>>> print(df.to_string())
                                   compound                                    system  reported_measurement
0  CC1=C[C@H]2O[C@@H]3[C@H](O)C[C@](C)([C@@]2(CO)[C@H](O)C1=O)[C@]31CO1  wild-type ZIKV (Ugandan MR766 strain) in Vero cells               -38.561
1  Cc1cc2c(F)c(Oc3ncnn4cc(OCC(C)O)c(C)c34)ccc2[nH]1 (centres unmarked)  wild-type ZIKV (Ugandan MR766 strain) in Vero cells               -29.933
2  CCC(C)C1NC(=O)C(C(C)=O)=C1O (centres unmarked)  wild-type ZIKV (Ugandan MR766 strain) in Vero cells                -73.15
3  Cc1cc(C(=O)Nc2cccc(C(=O)Nc3cccc(C(F)(F)F)c3)c2)on1  wild-type ZIKV (Ugandan MR766 strain) in Vero cells               -18.226
4  OC1C=C2C3CN(Cc4cc5c(cc43)OCO5)C2CC1O (centres unmarked)  wild-type ZIKV (Ugandan MR766 strain) in Vero cells               -79.681
5  COc1ccc(C(O)C(C)OC2OC(CO)C(O)C(O)C2O)cc1 (centres unmarked)  wild-type ZIKV (Ugandan MR766 strain) in Vero cells               -87.993
6  COC(=O)C12CCC(C)C(C)C1C1=CCC3C4(C)CCC(OC(C)=O)C(C)(C)C4CCC3(C)C1(C)CC2 (centres unmarked)  wild-type ZIKV (Ugandan MR766 strain) in Vero cells               -73.633

Query compound follows.
Supply measured Efficacy of CC(=O)O[C@H]1CC2C(COC(=O)CC(C)C)=CO[C@@H](OC(=O)CC(C)C)C2[C@]12CO2 (some centres unmarked) in your reply.
-34.82

The measurements presented in this section are drawn from paper PMC8765781.
